protocol-description: pKa determination of E-P a-dH+ by UV-Vis titration
Type: physicochemical
assay-conditions: acidity constant of the cationic E form, water, 20 mM phosphate buffer, 298 K, triplicate
Please respond with reported pK a (E-PH^+) for every item in the list.
Answer with a number only.

**Q:** Name the reported pK a (E-PH^+) value associated with the compound C[n+]1ccc(NN=CC(=O)c2ccccc2)c2ccccc21
**A:** 7.2

**Q:** Name the reported pK a (E-PH^+) value associated with the compound C[n+]1ccc(-c2ccc(NN=CC(=O)c3ccccc3)cc2)cc1
**A:** 11.2

**Q:** Name the reported pK a (E-PH^+) value associated with the compound C[n+]1ccc(NN=CC(=O)c2ccccc2)cc1
**A:** 8.8

**Q:** Name the reported pK a (E-PH^+) value associated with the compound O=C(C=NNc1cc[n+](-c2ccccc2)cc1)c1ccccc1
**A:** 7.8

----------
protocol-description: UV-vis absorption spectra in buffered water (λmax, molar absorption coefficient)
Assay type: physicochemical
assay-conditions: molar absorption coefficient at λmax; error ± 5%; water
Please respond with reported ε (E-PH^+) for every item in the list.

**Q:** Name the reported ε (E-PH^+) value associated with the molecule C[n+]1ccc(-c2ccc(NN=CC(=O)c3ccccc3)cc2)cc1 [P dH^+]
**A:** 66,000 M^–1·cm^–1

**Q:** Name the reported ε (E-PH^+) value associated with the molecule C[n+]1ccc(NN=CC(=O)c2ccccc2)cc1 [P aH^+]
**A:** 41,000 M^–1·cm^–1

**Q:** Name the reported ε (E-PH^+) value associated with the molecule O=C(C=NNc1cc[n+](-c2ccccc2)cc1)c1ccccc1 [P cH^+]
**A:** 49,000 M^–1·cm^–1

**Q:** Name the reported ε (E-PH^+) value associated with the molecule C[n+]1ccc(NN=CC(=O)c2ccccc2)c2ccccc21 [P bH^+]
**A:** 42,000 M^–1·cm^–1

----------
protocol-description: UV-vis absorption spectra in buffered water (λmax, molar absorption coefficient)
Type: physicochemical
assay-conditions: maximum of the longest-wavelength absorption band; water
Please respond with reported λmax (E-PH^+) for every item in the list.
# number only, unit nm dropped from output

**Q:** Name the reported λmax (E-PH^+) value associated with the compound C[n+]1ccc(NN=CC(=O)c2ccccc2)c2ccccc21 [P bH^+]
**A:** 378

**Q:** Name the reported λmax (E-PH^+) value associated with the compound C[n+]1ccc(-c2ccc(NN=CC(=O)c3ccccc3)cc2)cc1 [P dH^+]
**A:** 411

**Q:** Name the reported λmax (E-PH^+) value associated with the compound C[n+]1ccc(NN=CC(=O)c2ccccc2)cc1 [P aH^+]
**A:** 342

**Q:** Name the reported λmax (E-PH^+) value associated with the compound O=C(C=NNc1cc[n+](-c2ccccc2)cc1)c1ccccc1 [P cH^+]
**A:** 349

----------
Please respond with reported λmax (E-P) for every item in the list.
protocol-description: UV-vis absorption spectra in buffered water (λmax, molar absorption coefficient)
Format: physicochemical
assay-conditions: conjugate base; maximum of the longest-wavelength absorption band; water

**Q:** Name the reported λmax (E-P) value associated with the compound C[n+]1ccc(NN=CC(=O)c2ccccc2)cc1
**A:** 429 nm

**Q:** Name the reported λmax (E-P) value associated with the compound C[n+]1ccc(NN=CC(=O)c2ccccc2)c2ccccc21
**A:** 456 nm

**Q:** Name the reported λmax (E-P) value associated with the compound C[n+]1ccc(-c2ccc(NN=CC(=O)c3ccccc3)cc2)cc1
**A:** 500 nm

**Q:** Name the reported λmax (E-P) value associated with the compound O=C(C=NNc1cc[n+](-c2ccccc2)cc1)c1ccccc1
**A:** 432 nm

----------
protocol-description: UV-vis absorption spectra in buffered water (λmax, molar absorption coefficient)
Type: physicochemical
assay-conditions: conjugate base; molar absorption coefficient; error ± 5%; water
Please respond with reported ε (E-P) for every item in the list.

**Q:** Name the reported ε (E-P) value associated with the molecule C[n+]1ccc(NN=CC(=O)c2ccccc2)cc1
**A:** 39,000 M^–1·cm^–1

**Q:** Name the reported ε (E-P) value associated with the molecule O=C(C=NNc1cc[n+](-c2ccccc2)cc1)c1ccccc1
**A:** 46,000 M^–1·cm^–1

**Q:** Name the reported ε (E-P) value associated with the molecule C[n+]1ccc(NN=CC(=O)c2ccccc2)c2ccccc21
**A:** 42,000 M^–1·cm^–1

**Q:** Name the reported ε (E-P) value associated with the molecule C[n+]1ccc(-c2ccc(NN=CC(=O)c3ccccc3)cc2)cc1
**A:** 69,000 M^–1·cm^–1
